- measurement_target: T1, recombinant human IL-4Rα (extracellular domain, tagged) (human, UniProt P24394 26-232)
- T1 construct: it is written second here only for want of that; also called hIL-4Rα; not shown: His-tag or other conventionally used tag
- experimental_protocol: SPR, Biacore T200; antibody (human IgG4) on the sensor chip, human IL-4Rα at 0.625-12.5 nM
- Experimental: The binding affinity of the anti-IL-4Rα antibodies (reformatted as human IgG4) to human IL-4Rα was characterized using Biacore T200 (GE). The full-length anti-IL-4Rα antibodies were stabilized on sensor chip CMS. The affinities for human IL-4Rα at various concentrations were measured. […] Using the SPR technology, the association and dissociation rates were measured, and binding affinity was determined.
attribute_measured: koff (s⁻¹)

C27-33-33 (antibody, human IgG4, V domains shown) VH: EVQLLESGGGLVQPGGSLRLSCAASGFTLSSYAMHWVRQAPGKGLEYVSGISSSGSSTYYANSVKGRFTISRDNPKNTLFLQMSSLRAEDTAVYYCVRVKVAYRGGMDVWGQGTTVTVSS VL: EIVLTQSPGTLSLSPGERATLSCRASQGISSAYLAWYQQKPGQAPRLLIYGTSRRATGIPDRFSGSGSGTDFTLTISRLEPEDFAVYYCQLYGATSVTFGQGTKLEIK | 0.000447
C27-7-33 (antibody, human IgG4, V domains shown) VH: EVQLLESGGGLVQPGGSLRLSCAASGFTLSSYAMHWVRQAPGKGLEYVSGISPSGVSTYYANSVKGRFTISRDNPKNTLFLQMSSLRAEDTAVYYCVRVKVKYRGGMDVWGQGTTVTVSS VL: EIVLTQSPGTLSLSPGERATLSCRASQGISSAYLAWYQQKPGQAPRLLIYGTSRRATGIPDRFSGSGSGTDFTLTISRLEPEDFAVYYCQLYGATSVTFGQGTKLEIK | 0.000134
C27-55-55 (antibody, human IgG4, V domains shown) VH: EVQLLESGGGLVQPGGSLRLSCAASGFTLSSYAMHWVRQAPGKGLEYVSGISPTGGSTYYANSVKGRFTISRDNPKNTLFLQMSSLRAEDTAVYYCVRVKGRYRGGMDVWGQGTTVTVSS VL: EIVLTQSPGTLSLSPGERATLSCRASQNISTAYLAWYQQKPGQAPRLLIYGTSRRATGIPDRFSGSGSGTDFTLTISRLEPEDFAVYYCQLYGTSSVTFGQGTKLEIK | 0.000379
C27 (antibody, human IgG4, V domains shown, also called parent antibody C27; lead parent antibody) VH: EVQLLESGGGLVQPGGSLRLSCAASGFTLSSYAMHWVRQAPGKGLEYVSGISSNGGSTYYANSVKGRFTISRDNPKNTLFLQMSSLRAEDTAVYYCVRVKVGYRGGMDVWGQGTTVTVSS VL: ETTLTQSPDTLPLSPGDRASLSCRASQSVSSAYLAWYQQKPGQAPRLLIYGTSRRATGVPGRFSGSGSGTDFTLTISRLEPEDFAVYYCQLYGSSSVTFGQGTKLEIK | 0.0127
C27-6-33 (antibody, human IgG4, V domains shown) VH: EVQLLESGGGLVQPGGSLRLSCAASGFTLSSYAMHWVRQAPGKGLEYVSGISPSGSSTYYANSVKGRFTISRDNPKNTLFLQMSSLRAEDTAVYYCVRSKVRYRGGMDVWGQGTTVTVSS VL: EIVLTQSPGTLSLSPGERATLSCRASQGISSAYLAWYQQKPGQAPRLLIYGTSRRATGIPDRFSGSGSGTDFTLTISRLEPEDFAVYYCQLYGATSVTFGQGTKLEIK | 0.00017
C27-36-36 (antibody, human IgG4, V domains shown) VH: EVQLLESGGGLVQPGGSLRLSCAASGFTLSSYAMHWVRQAPGKGLEYVSGISPSGVSTYYANSVKGRFTISRDNPKNTLFLQMSSLRAEDTAVYYCVRVKVKYRGGMDVWGQGTTVTVSS VL: EIVLTQSPGTLSLSPGERATLSCRASQNISTAYLAWYQQKPGQAPRLLIYGTSRRATGIPDRFSGSGSGTDFTLTISRLEPEDFAVYYCQLYGATSVTFGQGTKLEIK | 0.000351
C27-56-56 (antibody, human IgG4, V domains shown) VH: EVQLLESGGGLVQPGGSLRLSCAASGFTLSSYAMHWVRQAPGKGLEYVSGISPSSTSTYYANSVKGRFTISRDNPKNTLFLQMSSLRAEDTAVYYCVRVKVLYRGGMDVWGQGTTVTVSS VL: EIVLTQSPGTLSLSPGERATLSCRASQSVSSAYLAWYQQKPGQAPRLLIYGTSRRATGIPDRFSGSGSGTDFTLTISRLEPEDFAVYYCQLYGASSVTFGQGTKLEIK | 0.000201
C27-78-78 (antibody, human IgG4, V domains shown) VH: EVQLLESGGGLVQPGGSLRLSCAASGFTLSSYAMHWVRQAPGKGLEYVSGISPSSASTYYANSVKGRFTISRDNPKNTLFLQMSSLRAEDTAVYYCVRVKSKYRGGMDVWGQGTTVTVSS VL: EIVLTQSPGTLSLSPGERATLSCRASQSISTAYLAWYQQKPGQAPRLLIYGTSRRATGIPDRFSGSGSGTDFTLTISRLEPEDFAVYYCQLYGASSVTFGQGTKLEIK | 0.000416
C27-Y2-Y2 (antibody, human IgG4, V domains shown) VH: EVQLLESGGGLVQPGGSLRLSCAASGFTLSSYAMHWVRQAPGKGLEYVSGISYSSASTYYANSVKGRFTISRDNPKNTLFLQMSSLRAEDTAVYYCVRVKVRYRGGMDVWGQGTTVTVSS VL: EIVLPQSPGTLSLSPGERATLSCRASQGVSSAYLAWYQQKPGQAPRLLIYGTSRRATGIPDRFSGSGSGTDFTLTISRLEPEDFAVYYCQLYGSTSVTFGQGTKLEIK | 0.00078
C27-82-58 (antibody, human IgG4, V domains shown) VH: EVQLLESGGGLVQPGGSLRLSCAASGFTLSSYAMHWVRQAPGKGLEYVSGISGNSASTYYANSVKGRFTISRDNPKNTLFLQMSSLRAEDTAVYYCVRVKLKYRGGMDVWGQGTTVTVSS VL: EIVLTQSPGTLSLSPGERATLSCRASQDISSAYLAWYQQKPGQAPRLLIYGTSRRATGIPDRFSGSGSGTDFTLTISRLEPEDFAVYYCQLYGATSVTFGQGTKLEIK | 0.000557
C27-47-56 (antibody, human IgG4, V domains shown) VH: EVQLLESGGGLVQPGGSLRLSCAASGFTLSSYAMHWVRQAPGKGLEYVSGISPTGTSTYYANSVKGRFTISRDNPKNTLFLQMSSLRAEDTAVYYCVRVKGAYRGGMDVWGQGTTVTVSS VL: EIVLTQSPGTLSLSPGERATLSCRASQSVSSAYLAWYQQKPGQAPRLLIYGTSRRATGIPDRFSGSGSGTDFTLTISRLEPEDFAVYYCQLYGASSVTFGQGTKLEIK | 0.000195
